Values compiled from ChEMBL document CHEMBL1144856.

I'd be grateful if you could share measured inhibition for these entries.
Experimental System: Polyunsaturated fatty acid 5-lipoxygenase (Homo sapiens)
Experimental Protocol: Inhibition of LOX5 from human PBML cells at 10 uM by enzyme immuno assay
Type: cell-based
# number only, unit % dropped from output

QUERY: Could you tell me which inhibition is on file for NS(=O)(=O)c1ccc(N2N=C(C(F)(F)F)CC2c2c[nH]c3c(Cl)cccc23)cc1 (stereo in doubt; 5f) ?
RESULT: 94

QUERY: What do you get for `CS(=O)(=O)c1ccc(C2=C(c3ccccc3)C(=O)OC2)cc1` ?
RESULT: 11

QUERY: What do we get for NS(=O)(=O)c1ccc(N2N=C(C(F)(F)F)CC2c2c[nH]c3ccccc23)cc1 (stereo in doubt; 5a) ?
RESULT: 41

QUERY: Same lookup for NS(=O)(=O)c1ccc(N2N=C(C(F)(F)F)CC2c2c[nH]c3cc(Cl)ccc23)cc1 (centres undefined) , please.
RESULT: 51

----------
Species on record: Ovis aries
Experimental Protocol: Selectivity ratio of IC50 for ovine COX1 to IC50 for ovine COX2
Hi there, I'd appreciate the recorded Ratio IC50 for every entry that follows.
Reply with just the number.

QUERY: Ratio IC50 for `NS(=O)(=O)c1ccc(-n2nc(C(F)(F)F)cc2-c2c[nH]c3ccccc23)cc1` ?
RESULT: 0

QUERY: Repeat with NS(=O)(=O)c1ccc(N2N=C(C(F)(F)F)CC2c2c[nH]c3ccc([N+](=O)[O-])cc23)cc1 (stereo not drawn)
RESULT: 2

----------
Experimental System: Prostaglandin G/H synthase 1 (Ovis aries, UniProt P05979)
Sequence (P05979 whole entry): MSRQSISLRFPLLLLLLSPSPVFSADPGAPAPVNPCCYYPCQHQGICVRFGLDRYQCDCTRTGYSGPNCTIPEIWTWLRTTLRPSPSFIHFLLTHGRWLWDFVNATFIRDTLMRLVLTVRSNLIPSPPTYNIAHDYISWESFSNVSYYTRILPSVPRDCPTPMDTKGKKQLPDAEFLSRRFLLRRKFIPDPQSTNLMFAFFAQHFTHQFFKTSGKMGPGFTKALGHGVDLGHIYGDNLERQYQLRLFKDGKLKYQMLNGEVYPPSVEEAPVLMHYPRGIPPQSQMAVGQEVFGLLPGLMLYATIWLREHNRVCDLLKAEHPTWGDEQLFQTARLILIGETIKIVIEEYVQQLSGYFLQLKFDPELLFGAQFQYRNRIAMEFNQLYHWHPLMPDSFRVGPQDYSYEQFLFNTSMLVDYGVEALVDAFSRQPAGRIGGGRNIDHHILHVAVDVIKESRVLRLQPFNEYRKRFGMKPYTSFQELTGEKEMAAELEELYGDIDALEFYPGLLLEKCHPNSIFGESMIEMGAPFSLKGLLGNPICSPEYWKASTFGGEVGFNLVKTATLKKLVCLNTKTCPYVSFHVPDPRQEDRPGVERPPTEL
Experimental Protocol: Inhibition of ovine COX1 by enzyme immuno assay
Test Readout: IC50

QUERY: Prostaglandin G/H synthase 1 (Ovis aries, UniProt P05979) / IC50 / NS(=O)(=O)c1ccc(N2N=C(C(F)(F)F)CC2c2c[nH]c3c([N+](=O)[O-])cccc23)cc1 (configuration not stated) : value?
RESULT: > 100 µM

QUERY: Also N#Cc1ccc2[nH]cc(C3CC(C(F)(F)F)=NN3c3ccc(S(N)(=O)=O)cc3)c2c1 (configuration not stated) ?
RESULT: > 100 µM

QUERY: For NS(=O)(=O)c1ccc(N2N=C(C(F)(F)F)CC2c2c[nH]c3ccc([N+](=O)[O-])cc23)cc1 (configuration not stated) then?
RESULT: > 100 µM

QUERY: Another compound to look at: Nc1ccc2c(C3CC(C(F)(F)F)=NN3c3ccc(S(N)(=O)=O)cc3)c[nH]c2c1 (configuration not stated)
RESULT: > 100 µM

QUERY: Thanks! And COc1cccc2[nH]cc(C3CC(C(F)(F)F)=NN3c3ccc(S(N)(=O)=O)cc3)c12 (configuration not stated) ?
RESULT: > 100 µM

QUERY: Record: Cc1[nH]c2cc(Cl)ccc2c1C1CC(C(F)(F)F)=NN1c1ccc(S(N)(=O)=O)cc1 (configuration not stated)
RESULT: > 100 µM

QUERY: Same question for NS(=O)(=O)c1ccc(N2N=C(C(F)(F)F)CC2c2c[nH]c3ccccc23)cc1 (single isomer, unassigned; enantiomer 2) please.
RESULT: > 100 µM

----------
Answer each item with its documented inhibition.
Experimental System: Polyunsaturated fatty acid lipoxygenase ALOX15 (Oryctolagus cuniculus) (UniProt P12530)
Sequence (P12530 whole entry): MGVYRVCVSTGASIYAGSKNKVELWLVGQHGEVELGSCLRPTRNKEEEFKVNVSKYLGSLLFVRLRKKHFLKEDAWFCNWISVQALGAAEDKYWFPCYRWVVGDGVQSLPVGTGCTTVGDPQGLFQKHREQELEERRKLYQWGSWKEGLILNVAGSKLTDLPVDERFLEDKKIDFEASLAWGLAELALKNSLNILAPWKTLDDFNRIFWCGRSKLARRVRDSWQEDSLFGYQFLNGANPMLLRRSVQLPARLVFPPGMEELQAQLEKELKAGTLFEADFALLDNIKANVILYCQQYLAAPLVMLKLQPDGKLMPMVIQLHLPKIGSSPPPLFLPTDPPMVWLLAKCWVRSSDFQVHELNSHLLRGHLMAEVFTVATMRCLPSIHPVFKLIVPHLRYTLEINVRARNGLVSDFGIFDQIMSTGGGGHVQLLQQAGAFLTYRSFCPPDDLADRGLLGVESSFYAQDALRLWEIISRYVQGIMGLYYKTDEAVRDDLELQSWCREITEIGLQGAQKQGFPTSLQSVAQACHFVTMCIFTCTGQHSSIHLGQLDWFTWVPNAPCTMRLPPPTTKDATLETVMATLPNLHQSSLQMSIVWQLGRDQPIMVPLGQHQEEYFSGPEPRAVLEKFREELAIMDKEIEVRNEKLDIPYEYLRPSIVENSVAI
Experimental Protocol: Inhibition of LOX15 from rabbit reticulocytes at 10 uM by enzyme immuno assay
Reply with the number, then its unit.

QUERY: Requested read-out: inhibition. Entry: `Cc1ccc(-c2cc(C(F)(F)F)nn2-c2ccc(S(N)(=O)=O)cc2)cc1`
RESULT: 22%

QUERY: Note, next up: NS(=O)(=O)c1ccc(N2N=C(C(F)(F)F)CC2c2c[nH]c3cc(Cl)ccc23)cc1 (stereo not given)
RESULT: 36%

QUERY: Further, for NS(=O)(=O)c1ccc(N2N=C(C(F)(F)F)CC2c2c[nH]c3c(Cl)cccc23)cc1 (stereo in doubt; 5f) ?
RESULT: 36%

QUERY: Same thing, different compound: NS(=O)(=O)c1ccc(N2N=C(C(F)(F)F)CC2c2c[nH]c3ccccc23)cc1 (stereo in doubt; 5a)
RESULT: 31%

QUERY: Another compound: `CS(=O)(=O)c1ccc(C2=C(c3ccccc3)C(=O)OC2)cc1`
RESULT: 6%
